In this section, each of the binders is paired with its reported % IC50 to SRF813-hIgG1.
Target: T1, human PVRIG-mFc protein (Acro, PVG-H5253) (human, UniProt Q6DKI7 41-171, limits assumed)
T1 construct: bought protein
T1 sequence (looked up): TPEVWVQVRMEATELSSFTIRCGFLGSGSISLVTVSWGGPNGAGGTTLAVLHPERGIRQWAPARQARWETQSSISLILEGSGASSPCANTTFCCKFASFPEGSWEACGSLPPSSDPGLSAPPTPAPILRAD
Assay: FACS competition, PVRIG-mFc binding to CHO-K1-CD112 cells, competitor CD112 on cells
Numbers only; they are read as %.

Take a look at these entries with their results.
- Binder: "PVRIG-A104 (Fc fusion, heavy chain antibody VHH-hinge-CH2-CH3, human IgG1 constant part; not shown: human IgG1 hinge-CH2-CH3) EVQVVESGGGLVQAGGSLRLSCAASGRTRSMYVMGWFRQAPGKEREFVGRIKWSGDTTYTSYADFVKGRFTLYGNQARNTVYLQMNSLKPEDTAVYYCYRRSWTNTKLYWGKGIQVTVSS"
  Unit: "%"
  % IC50 to SRF813-hIgG1: 116
- Binder: "PVRIG-A35 (Fc fusion, heavy chain antibody VHH-hinge-CH2-CH3, human IgG1 constant part; not shown: human IgG1 hinge-CH2-CH3) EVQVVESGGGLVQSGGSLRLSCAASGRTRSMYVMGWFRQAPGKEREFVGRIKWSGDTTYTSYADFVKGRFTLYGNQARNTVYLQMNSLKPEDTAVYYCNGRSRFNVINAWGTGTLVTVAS"
  Unit: "%"
  % IC50 to SRF813-hIgG1: 136
- Binder: "PVRIG-A105 (Fc fusion, heavy chain antibody VHH-hinge-CH2-CH3, human IgG1 constant part; not shown: human IgG1 hinge-CH2-CH3) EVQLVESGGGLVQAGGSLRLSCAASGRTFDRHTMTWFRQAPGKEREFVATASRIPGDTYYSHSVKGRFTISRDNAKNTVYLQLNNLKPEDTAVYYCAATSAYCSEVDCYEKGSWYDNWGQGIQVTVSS"
  Unit: "%"
  % IC50 to SRF813-hIgG1: 97.7

Okay, now this binder:
Tell me % IC50 to SRF813-hIgG1 reported for PVRIG-A15 (Fc fusion, heavy chain antibody VHH-hinge-CH2-CH3, human IgG1 constant part; not shown: human IgG1 hinge-CH2-CH3) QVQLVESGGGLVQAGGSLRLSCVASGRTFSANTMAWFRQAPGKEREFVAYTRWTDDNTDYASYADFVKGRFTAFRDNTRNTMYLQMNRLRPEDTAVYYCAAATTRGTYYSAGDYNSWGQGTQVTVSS
72.4
